Values from paper PMC9570995

Provide the reported pIC50 of each item.
biological target: human tissue nonspecific alkaline phosphatase (h-TNAP) (Homo sapiens); assay: Alkaline phosphatase inhibition assay (p-NPP substrate); type: biochemical; conditions: h-TNAP; assay buffer pH 9.5; Table 1 and text; read-out: IC50 + SEM
Sequence (P05186 18-524): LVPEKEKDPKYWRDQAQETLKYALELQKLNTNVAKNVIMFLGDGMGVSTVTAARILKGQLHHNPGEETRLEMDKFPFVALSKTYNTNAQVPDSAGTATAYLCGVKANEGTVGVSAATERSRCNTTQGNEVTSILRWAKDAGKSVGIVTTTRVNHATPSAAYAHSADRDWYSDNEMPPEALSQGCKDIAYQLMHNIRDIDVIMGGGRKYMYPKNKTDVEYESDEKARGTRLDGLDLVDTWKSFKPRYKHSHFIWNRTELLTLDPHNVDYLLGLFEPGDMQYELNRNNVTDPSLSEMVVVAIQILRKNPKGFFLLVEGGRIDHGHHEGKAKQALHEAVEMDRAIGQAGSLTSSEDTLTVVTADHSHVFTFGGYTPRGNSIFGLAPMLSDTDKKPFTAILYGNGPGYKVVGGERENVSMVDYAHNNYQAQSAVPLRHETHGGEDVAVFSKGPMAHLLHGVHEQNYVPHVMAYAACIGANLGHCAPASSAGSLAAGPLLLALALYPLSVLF
One number for each entry, as −log10 of the molar value.

N#CC1=C(N)N(Cc2ccccc2)C(N)=C(C#N)C1c1ccc2ccccc2c1 :: 5.88
COc1ccc(C2C(C#N)=C(N)N(Cc3ccccc3)C(N)=C2C#N)c(OC)c1OC :: 5.06
CCOc1ccc(-c2c(C#N)c(N)nc(NCCCn3ccnc3)c2C#N)cc1 :: 5.91
COc1c(O)cccc1C1C(C#N)=C(N)N(Cc2ccccc2)C(N)=C1C#N :: 5.65

Now, please, on to the next compound.
Incoming: Form field: pIC50 recorded for CCOc1ccc(-c2c(C#N)c(N)nc(NCCc3ccc(S(N)(=O)=O)cc3)c2C#N)cc1 with human tissue nonspecific alkaline phosphatase (h-TNAP) (Homo sapiens) (enter value)
Outgoing: 6.31
